Reference source: PubChem BioAssay (NCI)

# System: MDA-MB-231 breast
# PROTOCOL_DESCRIPTION: NCI-60 one-dose screen, 48 h
# CONDITION_PARAMETERS: 10 µM unless noted
# Procedure: Cells are grown in 96 well plates and exposed to the test compound for 48 hours. Compounds are tested at a single concentration, which is 10^-5 M for most compounds. The reported endpoint is percent growth (GI% or GIPRCNT), where numbers from 0 - 100% represent growth inhibition, and numbers from -100% - 0 represent cell death. For example, a value of 40 represents 60% growth inhibition. A value of 0 means no net growth occurred over the course of the experiment. […]
About 83,000 compounds went through this panel and 20% of them were active in at least one assay; those are over-represented in the sample as a whole. The source made the active and inactive calls. The calls were made as follows: active = growth percent below 10; inactive = the rest.
Pick from active, inactive when you respond.

Known results for molecules:
MOLECULE	SYSTEM_NAME	LABEL_CLASS
Cc1cccc(-c2nc(Nc3ccc4ncsc4c3)c3ccccc3n2)n1	MDA-MB-231 breast	inactive
CCN1C(=O)N(CC)C2C1NN=c1s/c(=C\c3ccc[nH]3)c(=O)n12 (centres undefined)	MDA-MB-231 breast	inactive
C=C1C(=O)O[C@H]2[C@H]1CC/C(COC(=O)CSCSCC(=O)OC/C1=C/CC[C@@]3(C)O[C@H]3[C@H]3OC(=O)C(=C)[C@@H]3CC1)=C\CC[C@@]1(C)O[C@@H]21	MDA-MB-231 breast	active

Switching to the query record.
Input line: Name the outcome recorded for C=C1C(=O)O[C@H]2[C@H]1CC/C(COC(=O)c1cc3cc(Cl)ccc3[nH]1)=C\CC[C@@]1(C)O[C@@H]21 in the assay.
Output line: active
